Molecular target: human placental GnRH receptor (human) (UniProt P30968)
Experiment: homologous radioreceptor assay, placenta 2 membrane preparation, radiolabeled D-Arg(6)-chicken II GnRH-aza-Gly-amide as label
Non-standard residues stand in square brackets, D forms with d. pGlu = O=C1CC[C@@H](C(=O)O)N1; azaGly = NNC(=O)O
OUTCOME_MEASURE: Kd (nM)
Expressed in nM, but write only the number.

Kd in this record for [pGlu]HWSH[dR]WYP[azaGly]-NH2 (also: also used radioiodinated as label) [D-Arg(6)-chicken II GnRH-aza-Gly(10)-amide] : 68

Where these numbers come from: patent US20020065226A1
